Molecular target: T1, corticotropin releasing factor 2 receptor
T1 sequence (Q13324 whole entry, species assumed, looked up): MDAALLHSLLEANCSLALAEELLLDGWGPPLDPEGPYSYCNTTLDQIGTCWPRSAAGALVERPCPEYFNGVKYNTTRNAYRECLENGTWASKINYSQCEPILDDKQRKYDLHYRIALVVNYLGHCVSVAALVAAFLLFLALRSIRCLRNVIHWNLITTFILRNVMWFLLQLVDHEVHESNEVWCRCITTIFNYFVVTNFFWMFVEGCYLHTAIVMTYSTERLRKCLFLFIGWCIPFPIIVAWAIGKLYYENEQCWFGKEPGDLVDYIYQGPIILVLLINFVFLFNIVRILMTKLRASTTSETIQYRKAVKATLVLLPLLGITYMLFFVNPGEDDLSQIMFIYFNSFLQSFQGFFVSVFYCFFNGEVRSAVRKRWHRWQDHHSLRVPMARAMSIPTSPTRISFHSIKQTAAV
Experiment: cell-based or functional assay
Ends that are not written are not given here.
test_readout: CRF2R Emax % (%)
Entry rule: numbers only, all in %.

stdin: GET /values?readout=CRF2R Emax %&item= DNPSLSIDLPLILLRTLLELEKTQSQRERAEQNARIFARV-NH2 [SEQ ID NO 335]
stdout: 91

stdin: GET /values?readout=CRF2R Emax %&item= IVLSLDVSIGLLQILLEQARARAAREQATTNARILARV-NH2 [SEQ ID NO 370]
stdout: 75

stdin: GET /values?readout=CRF2R Emax %&item= ZGPPISIDLPLYLLRKMIEIEKQEKEKQQATTNARILARV (C-terminal amide) [SEQ ID NO 353]
stdout: 89.9

stdin: GET /values?readout=CRF2R Emax %&item= ZGPPISIDLPIYLLRKMIEIEKQEKEKQQAANNALLLATI (C-terminal amide) [SEQ ID NO 237]
stdout: 93

stdin: GET /values?readout=CRF2R Emax %&item= DNPSLSIDLPLFLLRTLLELEKTQSQRERAEQNARIFDRV-NH2 [SEQ ID NO 336]
stdout: 100

stdin: GET /values?readout=CRF2R Emax %&item= NDDPPISIDLPFHLLRNMIEMARIENEREQAGLNAKYLAEV-NH2 [SEQ ID NO 262]
stdout: 92.2

stdin: GET /values?readout=CRF2R Emax %&item= ZGPPISIDLPFQLLRKTIEIEKQEKEKQQATTNARLLDRV (C-terminal amide) [SEQ ID NO 321]
stdout: 86.8

stdin: GET /values?readout=CRF2R Emax %&item= DNPSLSIDLPLILLRTLLELEKTQSQRERAEQNARIFDRV-NH2 [SEQ ID NO 337]
stdout: 86.7

stdin: GET /values?readout=CRF2R Emax %&item= DNPSLSIDLPLLLLRTLLELEKTQSQRERAEQNAQIFAQV-NH2 [SEQ ID NO 327]
stdout: 100

stdin: GET /values?readout=CRF2R Emax %&item= ZGPPISIDLPQILLRKMIEIEKQEKEKQQAANNARLLARI (C-terminal amide) [SEQ ID NO 285]
stdout: 97.1

stdin: GET /values?readout=CRF2R Emax %&item= ZGPPISIDLPLQLLEKMIEIEKQEKEKQQATTNARLLDRV (C-terminal amide) [SEQ ID NO 247]
stdout: 100

stdin: GET /values?readout=CRF2R Emax %&item= NDDPPISIDLPYYLLRNMIEMARIENEREQAGLNAKYLAEV-NH2 [SEQ ID NO 267]
stdout: 44.2

stdin: GET /values?readout=CRF2R Emax %&item= ZGPPISIDLPYYLLRKMIEIEKQEKEKQQAANNALLLATI (C-terminal amide) [SEQ ID NO 225]
stdout: 89

stdin: GET /values?readout=CRF2R Emax %&item= ZGPPISIDLPFQLLRVLIEIEKQEKEKQQAANNALLLATI (C-terminal amide) [SEQ ID NO 361]
stdout: 99

stdin: GET /values?readout=CRF2R Emax %&item= IVLSLDVPIGLLQILLEKAAAEAEAAAKAAQEQILAHV-NH2 [SEQ ID NO 366]
stdout: 46

stdin: GET /values?readout=CRF2R Emax %&item= ZGPPISIDLPLQLLRKMIEIEKQEKEKQQAANNALLLDTI (C-terminal amide) [SEQ ID NO 248]
stdout: 98

stdin: GET /values?readout=CRF2R Emax %&item= ZGPPISIDLPLHLLRKMIEIEKQEKEKQQATTNARLLDTV (C-terminal amide) [SEQ ID NO 238]
stdout: 100

stdin: GET /values?readout=CRF2R Emax %&item= ZGPPISIDLPYHLLRKVIEIEKQEKEKQQAANNALLLDTI (C-terminal amide) [SEQ ID NO 312]
stdout: 95

stdin: GET /values?readout=CRF2R Emax %&item= ZGPPISIDLPFALLRKMIEIEKQEKEKQQAANNRLLLDTI (not fully specified; C-terminal amide) [SEQ ID NO 307]
stdout: 96.5

stdin: GET /values?readout=CRF2R Emax %&item= ZGPPISIDLPFQLLRKVIEIEKQEKEKQQAANNANLLANI (C-terminal amide) [SEQ ID NO 275]
stdout: 100

stdin: GET /values?readout=CRF2R Emax %&item= ZGPPISIDLPIYLLRKMIEIEKQEKEKQQAANNALLLDTI (C-terminal amide) [SEQ ID NO 236]
stdout: 97

stdin: GET /values?readout=CRF2R Emax %&item= DNPSLSIDLPLILLRTLLELARTQSQRERAEQNARIFARV-NH2 [SEQ ID NO 330]
stdout: 93.7

stdin: GET /values?readout=CRF2R Emax %&item= ZGPPISIDLPLYLLRKMIEIEKQEKEKQQAANNALLLATI (C-terminal amide) [SEQ ID NO 245]
stdout: 93

stdin: GET /values?readout=CRF2R Emax %&item= ZGPPISIDLPLHLLRKMIEIEKQEKEKQQAANNALLLATI (C-terminal amide) [SEQ ID NO 241]
stdout: 99
